These entries and their values trace back to patent US20080261994A1.

target: MMP-1 (Homo sapiens, UniProt P03956); experiment: MMP-1 inhibitory action (Type I collagen Activity Measurement kit, FITC-labeled collagen type I); type: biochemical; conditions: Experimental Example 2; read-out: IC50 MMP1
Sequence (P03956 100-469, species assumed): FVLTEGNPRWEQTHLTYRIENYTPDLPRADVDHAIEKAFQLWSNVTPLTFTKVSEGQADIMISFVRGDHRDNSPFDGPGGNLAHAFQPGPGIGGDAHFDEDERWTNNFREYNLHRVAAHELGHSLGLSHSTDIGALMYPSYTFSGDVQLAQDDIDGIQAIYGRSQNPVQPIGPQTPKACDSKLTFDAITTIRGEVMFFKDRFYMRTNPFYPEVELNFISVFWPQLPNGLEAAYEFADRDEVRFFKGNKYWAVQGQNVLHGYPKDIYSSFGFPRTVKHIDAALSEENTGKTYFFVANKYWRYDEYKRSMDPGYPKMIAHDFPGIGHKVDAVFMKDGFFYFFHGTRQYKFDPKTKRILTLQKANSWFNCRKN
pIC50: −log10 of the molar value.
observed-property: pIC50

CC1[C@H](c2ccccc2)[C@]1(NS(=O)(=O)c1ccc(Br)s1)C(=O)O (some centres unmarked) [Example 2-427]
> 6.00
O=C(CO)NCC1(c2ccccc2)CC1(NS(=O)(=O)c1ccc(-c2ccc(Cl)cc2)s1)C(=O)O (centres unmarked) [Example 2-399]
≤ 6.00

Record request: pIC50 value, item Cc1cnc(N2CCN(S(=O)(=O)N[C@@]3(C(=O)O)C(C)[C@@H]3c3ccccc3)CC2)s1 (some centres unmarked) [Example 2-484] ≤ 5.00

Now the same for O=C(O)CSCC1(c2ccccc2)CC1(NS(=O)(=O)c1ccc(-c2ccc(Cl)cc2)s1)C(=O)O (centres unmarked) [Example 2-358] ≤ 6.00

Now the same for O=C(O)C1(NS(=O)(=O)c2ccc(-c3cc(C(F)(F)F)on3)s2)CC1c1cccc(NS(=O)(=O)N2CCOCC2)c1 (centres unmarked) [Example 2-267] ≤ 6.00

Now the same for CC1[C@H](c2ccccc2)[C@]1(NS(=O)(=O)N1CCN(CCc2ccccc2)CC1)C(=O)O (some centres unmarked) [Example 2-531] ≤ 6.00

Now the same for CC1[C@H](c2ccccc2)[C@]1(NS(=O)(=O)N1CCN(c2ccc(C(F)(F)F)cc2)C(=O)C1)C(=O)O (some centres unmarked) [Example 2-504] ≤ 6.00

Now the same for CC1[C@H](c2ccccc2)[C@]1(NS(=O)(=O)N1CCc2ccccc2C1)C(=O)O (some centres unmarked) [Example 2-535] ≤ 6.00

Now the same for O=C(O)CSCC1(c2ccccc2)CC1(NS(=O)(=O)c1ccc(-c2cc(C(F)(F)F)on2)s1)C(=O)O (centres unmarked) [Example 2-410] ≤ 6.00

Now the same for C[C@]1(c2ccccc2)C[C@@]1(NS(=O)(=O)c1ccc(-c2ccc(O)c(F)c2)s1)C(=O)O [Example 2-589] ≤ 6.00

Now the same for C[C@]1(c2ccccc2)C[C@@]1(NS(=O)(=O)c1ccc(/C=C\C(F)(F)F)s1)C(=O)O [Example 2-563] ≤ 6.00

Now the same for CC(=O)NCC1(c2ccccc2)CC1(NS(=O)(=O)c1ccc(-c2ccc(Cl)cc2)s1)C(=O)O (centres unmarked) [Example 2-376] ≤ 5.00

Now the same for O=C(Nc1ccccc1)c1ccc(S(=O)(=O)N[C@@]2(C(=O)O)C[C@@H]2c2ccccc2)cc1 [Example 2-474] ≤ 5.00

Now the same for CC1[C@H](c2ccccc2)[C@]1(NS(=O)(=O)N1CCN(c2ccc(Cl)cc2)CC1)C(=O)O (some centres unmarked) [Example 2-426] ≤ 6.00

Now the same for CN(C)C(=O)CCc1ccc([C@H]2C[C@@]2(NS(=O)(=O)c2ccc(-c3cc(C(F)(F)F)on3)s2)C(=O)O)cc1 [Example 2-282] > 6.00

Now the same for CC1(c2cccc(F)c2)CC1(NS(=O)(=O)c1ccc(-c2cc(C(F)(F)F)on2)s1)C(=O)O (centres unmarked) [Example 2-611] > 6.00

Now the same for O=C(O)[C@]1(NS(=O)(=O)c2ccc(-n3cc(Cl)cn3)nc2)C[C@@H]1c1ccccc1 [Example 2-554] ≤ 6.00

Now the same for O=C(O)C1(NS(=O)(=O)c2ccc(-c3cc(C(F)(F)F)on3)s2)CC1c1cc(CCO)on1 (centres unmarked) [Example 2-315] ≤ 5.00
